The values you see were collected from ChEMBL document CHEMBL2203023.

assay_summary: in vivo
measurement_conditions: rat, po
value_type: bioavailability (%)

smiles_text	value_type	value_observed
CCc1cc(C#N)ccc1Nc1c(N[C@H](C)C(C)(C)C)c(=O)c1=O	bioavailability	70

###

The entries below are paired with their reported Papp.
assay_summary: in vitro
measurement_conditions: human, Caco-2

compound	Papp [×10⁻⁶ cm/s]
O=C(CCCN1CCC(O)(c2ccc(Cl)cc2)CC1)c1ccc(F)cc1 [HALOPERIDOL]	18.9
O=C(CCCN1CC[Si](O)(c2ccc(Cl)cc2)CC1)c1ccc(F)cc1	19.8

###

assay_summary: physchem
measurement_conditions: octanol/water
The entries below are paired with their reported logP.

molecule	logP
COc1ccc(C(CN(C)C)[Si]2(O)CCCCC2)cc1 (racemic)	3.21
NCc1cc(F)c(O)c(F)c1	1.01
NCc1ccc(F)c(O)c1F	1.01
O=C(O)Cn1ccc(C(=O)c2ccccc2)c1	1.23
O=C(c1ccccc1)c1ccn(-c2cc(F)c(O)c(F)c2)c1	3.56
COc1ccc(C(CN(C)C)C2(O)CCCCC2)cc1 (racemic)	3.13
CN(C)CCCCc1ccc(C(C)(C)C)cc1	4.3

###

assay_summary: in vitro
measurement_conditions: human, liver microsomes
The entries below are paired with their reported microsomal CLint.

smiles_text	microsomal CLint
CN(C)CCCCc1ccc(C(C)(C)C)cc1	16 µL/min/mg
CN(C)CCCCc1ccc(C2COC2)cc1	2 µL/min/mg
CN(C)CCC1(Cc2ccc(C(C)(C)C)cc2)COC1	6 µL/min/mg
CN(C)C1(CCCc2ccc(C(C)(C)C)cc2)COC1	13 µL/min/mg

###

assay_summary: physchem
The entries below are paired with their reported solubility.

smiles_text	limit_sign	solubility (µg/mL)
CN(C)C1(CCCc2ccc(C(C)(C)C)cc2)COC1	=	57
CN(C)CCC1(Cc2ccc(C(C)(C)C)cc2)COC1	=	4100
CN(C)CCCCc1ccc(C(C)(C)C)cc1	<	1
CN(C)CCCCc1ccc(C2COC2)cc1	=	4000
CN(C)CCCC1(c2ccc(C(C)(C)C)cc2)COC1	=	270
CN(C)CCCCc1ccc(C2(C)COC2)cc1	=	4400

###

assay_summary: clinical
measurement_conditions: human, in vivo

molecule	half-life / min
CC#CCC(C)[C@H](O)/C=C/[C@@H]1[C@H]2C/C(=C/CCCC(=O)O)C[C@H]2C[C@H]1O (stereo partly specified) [ILOPROST]	20

###

assay_summary: in vitro
measurement_conditions: mouse, liver microsomes

smiles_text	measurement_units	microsomal CLint
CN(C)CCCCc1ccc(C2COC2)cc1	µL/min/mg	27
CN(C)CCCCc1ccc(C(C)(C)C)cc1	µL/min/mg	417
CN(C)CCCCc1ccc(C2(C)COC2)cc1	µL/min/mg	43
CN(C)CCC1(Cc2ccc(C(C)(C)C)cc2)COC1	µL/min/mg	13
CN(C)C1(CCCc2ccc(C(C)(C)C)cc2)COC1	µL/min/mg	580
CN(C)CCCC1(c2ccc(C(C)(C)C)cc2)COC1	µL/min/mg	147

###

assay_summary: in vitro
measurement_conditions: rat, liver microsomes

smiles_text	half-life (min)
O=C(CCCN1CC[Si](O)(c2ccc(Cl)cc2)CC1)c1ccc(F)cc1	18

###

assay_summary: in vitro
measurement_conditions: human, Caco-2
The entries below are paired with their reported Papp.

smiles_text	Papp
Cc1nccn1-c1ccc(NC(=O)c2cc(C(F)(F)F)nn2-c2ccc3onc(N)c3c2)cc1	0.82 ×10⁻⁶ cm/s
Cc1nccn1-c1ccc(NC(=O)c2cc(C(F)(F)F)nn2-c2ccc3onc(N)c3c2)c(F)c1	7.41 ×10⁻⁶ cm/s
Cc1nccn1-c1ccc(NC(=O)c2cc(C(F)(F)F)nn2-c2ccc3onc(N)c3c2)c(C#N)c1	< 0.1 ×10⁻⁶ cm/s

###

assay_summary: physchem

compound	pKa
O=c1c(O)c(-c2ccccc2)c1=O	0.37
O=C(CCCN1CC[Si](O)(c2ccc(Cl)cc2)CC1)c1ccc(F)cc1	9.27
COc1ccc(C(CN(C)C)[Si]2(O)CCCCC2)cc1 (racemic)	9.7
Oc1c(F)cccc1F	7.12

###

assay_summary: physchem
measurement_conditions: octanol/water, pH 7.4
The entries below are paired with their reported logD.

molecule	logD
O=C(CCCN1CC[Si](O)(c2ccc(Cl)cc2)CC1)c1ccc(F)cc1	2.77
COc1ccc(C(CN(C)C)[Si]2(O)CCCCC2)cc1 (racemic)	0.92
O=C(CCCN1CCC(O)(c2ccc(Cl)cc2)CC1)c1ccc(F)cc1 [HALOPERIDOL]	2.42
COc1ccc(C(CN(C)C)C2(O)CCCCC2)cc1 (racemic) [VENLAFAXINE]	0.88

###

assay_summary: in vitro
measurement_conditions: human, liver microsomes
The entries below are paired with their reported half-life.

smiles_text	half-life (min)
C=C(C)n1c(=O)n(Cc2nc3ccccc3n2CCCC#N)c2cnccc21	11
O=C(CCCN1CC[Si](O)(c2ccc(Cl)cc2)CC1)c1ccc(F)cc1	65
